Every entry's value here was drawn from patent US8580556B2.

- Tested on: tetA promoter (PtetA)-lacZ reporter in E. coli KM3
- Type: cell-based
- condition_notes: Table 4; sulfometuron 20 μg/ml (20 ppm); 48 hrs at 30° C.
Mark t for relative β-galactosidase activity, inducer Sm under 3, f if at or over.

Sample answers from the record:
[[record]]
molecule = "L1-9: library L1 hit, sulfonylurea-responsive TetR(B) variant, parent of L2 and L4 (protein, Sulfonylurea responsive repressor L1-09) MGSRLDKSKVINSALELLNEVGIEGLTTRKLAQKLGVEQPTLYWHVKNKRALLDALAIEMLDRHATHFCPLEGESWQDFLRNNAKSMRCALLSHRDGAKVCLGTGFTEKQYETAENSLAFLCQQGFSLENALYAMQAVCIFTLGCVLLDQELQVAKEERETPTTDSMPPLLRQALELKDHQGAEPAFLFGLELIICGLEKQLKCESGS"
class_assignment = "t"

[[record]]
molecule = "L1-44: library L1 hit, sulfonylurea-responsive TetR(B) variant, SEQ ID NO: 13 (protein, Sulfonylurea responsive repressor L1-44) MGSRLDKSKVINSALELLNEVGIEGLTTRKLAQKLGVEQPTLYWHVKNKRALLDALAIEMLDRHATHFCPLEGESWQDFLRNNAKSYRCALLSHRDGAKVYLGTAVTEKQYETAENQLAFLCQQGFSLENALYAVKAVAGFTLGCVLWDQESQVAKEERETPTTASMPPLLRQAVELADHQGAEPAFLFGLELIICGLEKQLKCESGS"
class_assignment = "t"

[[record]]
molecule = "L1-29: library L1 hit, sulfonylurea-responsive TetR(B) variant, SEQ ID NO: 10 (protein, Sulfonylurea responsive repressor L1-29) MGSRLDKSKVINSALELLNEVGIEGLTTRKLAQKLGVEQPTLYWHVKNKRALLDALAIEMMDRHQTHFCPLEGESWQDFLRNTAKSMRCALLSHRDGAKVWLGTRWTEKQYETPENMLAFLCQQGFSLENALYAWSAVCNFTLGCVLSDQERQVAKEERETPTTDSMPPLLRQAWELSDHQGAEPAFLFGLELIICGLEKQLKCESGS"
class_assignment = "t"

[[record]]
molecule = "L1-2: library L1 hit, sulfonylurea-responsive TetR(B) variant, SEQ ID NO: 3 (protein, Sulfonylurea responsive repressor L1-02) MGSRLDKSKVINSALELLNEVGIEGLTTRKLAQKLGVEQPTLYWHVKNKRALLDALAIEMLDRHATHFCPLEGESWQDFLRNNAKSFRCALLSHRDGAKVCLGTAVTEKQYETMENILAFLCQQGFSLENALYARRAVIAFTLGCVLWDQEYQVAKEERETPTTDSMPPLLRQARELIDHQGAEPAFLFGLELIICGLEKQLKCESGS"
class_assignment = "f"

[[record]]
molecule = "L1-38: library L1 hit, sulfonylurea-responsive TetR(B) variant (protein, Sulfonylurea responsive repressor L1-38) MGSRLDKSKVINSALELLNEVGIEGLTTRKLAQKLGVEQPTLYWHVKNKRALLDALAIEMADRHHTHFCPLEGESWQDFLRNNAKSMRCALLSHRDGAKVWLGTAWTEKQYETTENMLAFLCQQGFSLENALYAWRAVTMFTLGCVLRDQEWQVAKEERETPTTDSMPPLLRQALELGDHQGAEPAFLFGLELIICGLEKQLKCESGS"
class_assignment = "f"

[[record]]
molecule = "L1-24: library L1 hit, sulfonylurea-responsive TetR(B) variant (protein, Sulfonylurea responsive repressor L1-24) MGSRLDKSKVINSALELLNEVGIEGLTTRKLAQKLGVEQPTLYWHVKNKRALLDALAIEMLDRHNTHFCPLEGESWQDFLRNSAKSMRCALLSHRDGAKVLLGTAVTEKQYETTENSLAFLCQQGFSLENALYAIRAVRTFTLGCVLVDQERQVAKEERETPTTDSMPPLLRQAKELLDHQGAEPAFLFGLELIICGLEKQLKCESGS"
class_assignment = "f"


Prompt: State whether 3 exceeds relative β-galactosidase activity, inducer Sm recorded for L1-31: library L1 hit, sulfonylurea-responsive TetR(B) variant (protein, Sulfonylurea responsive repressor L1-31) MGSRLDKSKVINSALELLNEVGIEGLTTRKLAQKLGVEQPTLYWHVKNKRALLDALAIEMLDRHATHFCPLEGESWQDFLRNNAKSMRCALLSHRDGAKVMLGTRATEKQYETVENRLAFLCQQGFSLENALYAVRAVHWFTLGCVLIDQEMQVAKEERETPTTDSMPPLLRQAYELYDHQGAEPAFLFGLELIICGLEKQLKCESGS .
Response: t

Prompt: Input L1-7: library L1 hit, sulfonylurea-responsive TetR(B) variant, SEQ ID NO: 4 (protein, Sulfonylurea responsive repressor L1-07) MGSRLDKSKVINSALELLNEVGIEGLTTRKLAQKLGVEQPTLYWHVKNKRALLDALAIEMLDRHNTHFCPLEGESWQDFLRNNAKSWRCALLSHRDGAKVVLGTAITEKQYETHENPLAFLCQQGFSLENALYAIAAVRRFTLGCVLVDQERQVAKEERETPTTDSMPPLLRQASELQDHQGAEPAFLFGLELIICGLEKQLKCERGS
Response: f

Prompt: Another molecule to look at: L1-20: library L1 hit, sulfonylurea-responsive TetR(B) variant, SEQ ID NO: 6 (protein, Sulfonylurea responsive repressor L1-20) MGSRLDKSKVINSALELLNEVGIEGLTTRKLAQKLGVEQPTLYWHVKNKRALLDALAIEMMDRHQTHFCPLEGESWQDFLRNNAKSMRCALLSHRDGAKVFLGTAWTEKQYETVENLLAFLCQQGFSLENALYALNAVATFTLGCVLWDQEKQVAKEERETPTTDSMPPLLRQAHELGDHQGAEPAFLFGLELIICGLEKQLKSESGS
Response: f
